As shown below, each of these sequences has a reported Kd value.
Molecular target: PA;PB1 (in PA-PB1-PB2(1-116));PB2(1-116) (Influenza A virus A/Victoria/3/1975(H3N2);Influenza A virus A/Victoria/3/1975(H3N2);Influenza A virus A/Victoria/3/1975(H3N2)) (UniProt P03432+H9XIJ5)
Sequence (P03432 whole entry, looked up, chain 2 of 2, other chains not shown): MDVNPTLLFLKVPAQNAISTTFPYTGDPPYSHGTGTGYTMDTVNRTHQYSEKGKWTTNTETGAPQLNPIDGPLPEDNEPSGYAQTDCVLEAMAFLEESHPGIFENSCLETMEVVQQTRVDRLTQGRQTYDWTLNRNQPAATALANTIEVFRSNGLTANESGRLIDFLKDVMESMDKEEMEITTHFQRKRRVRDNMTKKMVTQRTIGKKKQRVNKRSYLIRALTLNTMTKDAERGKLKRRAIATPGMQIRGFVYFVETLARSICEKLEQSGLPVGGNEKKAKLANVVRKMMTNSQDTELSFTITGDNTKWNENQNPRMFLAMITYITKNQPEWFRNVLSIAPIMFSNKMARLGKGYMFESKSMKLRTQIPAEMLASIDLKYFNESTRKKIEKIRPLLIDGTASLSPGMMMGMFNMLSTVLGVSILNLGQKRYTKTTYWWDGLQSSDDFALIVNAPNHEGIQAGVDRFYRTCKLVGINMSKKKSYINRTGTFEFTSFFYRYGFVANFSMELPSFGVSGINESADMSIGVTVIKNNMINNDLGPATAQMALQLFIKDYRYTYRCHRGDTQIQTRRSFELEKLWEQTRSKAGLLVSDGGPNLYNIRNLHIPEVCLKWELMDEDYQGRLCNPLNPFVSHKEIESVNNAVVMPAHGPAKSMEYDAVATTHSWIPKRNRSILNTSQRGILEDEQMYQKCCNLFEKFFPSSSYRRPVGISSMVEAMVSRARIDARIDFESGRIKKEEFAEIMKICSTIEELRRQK
Assay: filter binding
Answer with the value and then the unit.

AUACCCUGCUUUUGCU [3'-vRNAp (32P)]    17 nM

Please find the next sequence below.
Sure, the documented Kd for AGUAGAAACAAGGGUA [5'-vRNAp (32P)] is 0.19 nM

###

System: NP
Test: fluorescence anisotropy
Conditions: 5'-monophosphate
experimentalReadout: Kd (µM)
The response must be a number in µM with no trailing unit.

Sure, the documented Kd for UCUCUCUCUCUCUCUCUC [polyUC] is 0.029

###

Target: PA;PB1 (in PA-PB1-PB2(1-116));PB2(1-116) (Influenza A virus A/Victoria/3/1975(H3N2);Influenza A virus A/Victoria/3/1975(H3N2);Influenza A virus A/Victoria/3/1975(H3N2)) (UniProt P03432+H9XIJ5)
Assay: fluorescence anisotropy
experimentalReadout: Kd (µM)
The response must be a number in µM with no trailing unit.

Sure, the documented Kd for AUACCCUGCUUUUGCU [3'-vRNAp] is 0.036
